System: Rattus norvegicus
ASSAY_METHOD_TEXT: Summation of percentage reductions, compared to pretreatment controls, in MABP of DOCA hypertensive rats at 1,2,3,5,8 hr after the 100 mg/kg oral dose.
Format: functional
OBSERVATION_TYPE: Summation MABP

1) CCCC/N=C(/N)Nc1nnc(-c2ccccc2C)s1.Cl    159
2) COCC/N=C(/N)Nc1nnc(-c2ccccc2C)s1.Cl    157
3) Cc1ccccc1-c1nnc(N=C(N)N)s1.Cl    167
4) Cc1ccccc1-c1nnc(NC2=NCCN2)s1.Cl    194
